- study.system: T1, HLA-A*02:01 (human)
- T1 construct: the tested peptide takes its place; also called peptide-receptive MHC molecules; MHC class I
- measurement.protocol: UV-ligand exchange, anti-β2m ELISA; grade of peptide exchange yield
measurement.type: peptide exchange yield

- SLIEKYFSV [SLIEKYFSV (SEQ ID NO: 158)]: ≥ 75%

Query: Any idea what its peptide exchange yield is? The binder is YLDSMYIML [YLDSMYIML (SEQ ID NO: 31)]
Result: 50 to 75%

Query: Any idea what its peptide exchange yield is? The binder is KLDDTYIKA [KLDDTYIKA (SEQ ID NO: 135)]
Result: 50 to 75%

Query: Any idea what its peptide exchange yield is? The binder is SVTGIIVGV [SVTGIIVGV (SEQ ID NO: 63)]
Result: ≥ 75%
